- experimentalTarget: T1, EGFrVIII peptide sequence (residues 1-20) (Homo sapiens, UniProt P00533, DELINS30-297G)
- T1 construct: purchased Sigma-Genosys (custom SPOTs array)
- assayOverview: Epitope mapping by SPOTs peptide array and Alanine scanning
- Type: binding
- experimentalSetup: SEQ ID 94/98 = EEKKGNYVVT; 95 = LEEKKGNYVVTD; 96 = YVVTDH; 97 = YVVTD; 99 = GNYVVT
reportedMetric: Epitope mapped by SPOTs

{"molecule": "139: XenoMax derived human anti-EGFRvIII IgG1, from well 182A5 (antibody, V domains shown) VH: EVQVLESGGGLVQPGGSLRLSCAASGFTFSSYAMSWVRQAPGKGLEWVSAISGSGGSTNYADSVKGRFTISRDNSKNTLYLQMNSLRAEDTAVYYCAGSSGWSEYWGQGTLVTVSS VL: DIQMTQSPSSLSASVGDRVTITCRASQGIRNNLAWYQQKPGKAPKRLIYAASNLQSGVPSRFTGSGSGTEFTLIVSSLQPEDFATYYCLQHHSYPLTSGGGTKVEIK", "obsValue": "(SEQ ID NO: 95)"}
{"molecule": "250: XenoMax derived human anti-EGFRvIII antibody, from well 138D2 (antibody, V domains shown) VH: EGQLLESGGGWVQPGESLRLSCAASGFTFSSYAMSWVRQAPGKGLEWVSAISGSGGSTNYADSVKGRFTISRDNSKNTLYLQVNSLRVEDTAVYYCAGSSGWSEYWGQGTLVTVSS VL: DIQMTQSPSSLSASVGDSVTITCRTSQGIRKNLGWYQQKPGKAPKRLIYAASSLQSGVPSRFSGSGSGTEFTLTISRLQPEDFATYYCLQHHSYPLTFGGGTRVEIR", "obsValue": "(SEQ ID NO: 95)"}

Source of measurements: patent US20050059087A1
